Catalogue of binders with associated log10(IC50)
Biological target: T1, HLA-DR4 molecule (DRB1*0401) (human)
T1 chain 1: not shown
T1 chain 2: not shown
Experiment: competition ELISA vs biotin-HA 306-318
Base-10 log of IC50, unit nM.

The cases that follow already have their log10(IC50) on record.
INSERT INTO results (binder, observed) VALUES
  ('DLLIRCINCQKPLCPEEKQRHL (modifications not checked) [E6(105-126)]', 3.57),
  ('LCVQSTHVDIRTLED (modifications not checked) [E7 67-81]', 3.88),
  ('LDLQPETTDLYCYEQ (modifications not checked) [E7 13-27]', 3.63),
  ('DLYCYEQLNDSSEEEDEIDG (modifications not checked) [E7(21-40)]', 3.24),
  ('SLYGTTLEQQYNKPL (modifications not checked) [E6 89-103]', 3.70);

Quick note, log10(IC50) for LRLCVQSTHVDIRTLEDLLMGTL (modifications not checked) [E7(65-87)] landed at 2.81

Quick note, log10(IC50) for PTLHEYMLDLQPETT (modifications not checked) [E7 6-20] landed at 2.24

Quick note, log10(IC50) for TLHEYMLDLQPETTDLYCYEQ (modifications not checked) [E7(7-27)] landed at 1.78

Quick note, log10(IC50) for QQYNKPLCDLLIRCI (modifications not checked) [E6 97-111] landed at 2.51
